Property: koff; scope: individual binders
- system: T1, human TPBG antigen immobilized on a CM5 chip (human, UniProt Q13641 32-355, limits assumed)
- T1 sequence (looked up): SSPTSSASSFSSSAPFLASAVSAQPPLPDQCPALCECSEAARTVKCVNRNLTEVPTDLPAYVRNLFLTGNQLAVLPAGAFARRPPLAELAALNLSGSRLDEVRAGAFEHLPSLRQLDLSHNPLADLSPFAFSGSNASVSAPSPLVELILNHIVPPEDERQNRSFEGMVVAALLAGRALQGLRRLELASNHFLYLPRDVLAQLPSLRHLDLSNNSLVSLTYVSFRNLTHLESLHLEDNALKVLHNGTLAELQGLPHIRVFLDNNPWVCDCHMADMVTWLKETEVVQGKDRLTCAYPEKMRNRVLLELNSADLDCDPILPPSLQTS
- experiment description: SPR (Biacore), human TPBG antigen immobilized on CM5 chip
Quick reminder: number only, in s⁻¹, skip the unit.

INPUT: Quick one: koff of Humanized antibody 28D4-12 (antibody, V domains shown, also called h28D4-12) VH: EVQLVESGGGLVKPGGSLRLSCAASGFTFSNYVMSWARQAPGKRLEWVAEISTGGSHTYYSDTVTGRFTISRDNAKKSLYLQMNSLRAEDTAVYYCIMFYYGSSYSMDYWGQGTTVTVSS VL: DIQMTQSPSSLSASVGDRVTITCRASQDIRNYLNWYQQKPGKTVKLLIYHTSRLHSGVPSRFSGSGSGTDYTFTISSLQPEDIATYFCQQGDTLPLTFGQGTRLEIK ?
OUTPUT: 3.94e-05

INPUT: Query: koff; subject: Humanized antibody 28D4-7 (antibody, V domains shown, also called h28D4-7) VH: EVQLVESGGGLVKPGGSLRLSCAASGFTFSNYVMSWIRQAPGKGLEWVAEISTGGSHTYYSDTVTGRFTISRDNAKKSLYLQMNSLRAEDTAVYYCIMFYYGSSYSMDYWGQGTTVTVSS VL: DIQMTQSPSSLSASVGDRVTITCRASQDIRNYLNWYQQKPGKAPKLLIYHTSRLHSGVPSRFSGSGSGTDYTFTISSLQPEDIATYYCQQGDTLPLTFGQGTRLEIK
OUTPUT: 9.42e-05

// data source = patent US20200062856A1
